Tested on: Escherichia coli TOP10;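 further: peptides expressed intracellularly from a pBAD plasmid library in pooled LB shake-flask culture, induced with 0.3% L-arabinose, DNA abundance read by NGS, three biological replicates, DESeq2 with apeglm shrinkage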
Experiment: shrunken log2 fold change of peptide-encoding DNA abundance (4.5 h post-induction vs induction); higher = less antimicrobial activity (less host growth inhibition)
Conditions: time post-induction: 4.5 h; library: site-saturation at positions 5, 18, 19, 20

Seq String	shrunken log2 fold change
RRIRFRPPRLPRPRPRPVGCPRP	-0.0325
RRIRMRPPRLPRPRPRPCMCPRP	-0.317
RRIRERPPRLPRPRPRPAMCPRP	-0.456
RRIRYRPPRLPRPRPRPHWAPRP	-0.24
RRIRERPPRLPRPRPRPTGWPRP	0.0993
RRIRGRPPRLPRPRPRPANLPRP	0.166
RRIRLRPPRLPRPRPRPMRNPRP	0.372
RRIRSRPPRLPRPRPRPVYSPRP	-0.0582
RRIRTRPPRLPRPRPRPKGHPRP	0.208
RRIRKRPPRLPRPRPRPDKMPRP	-0.48
RRIRYRPPRLPRPRPRPFMLPRP	-1.19
RRIRFRPPRLPRPRPRPMKNPRP	-0.0862
RRIRFRPPRLPRPRPRPGCKPRP	-0.222
RRIRPRPPRLPRPRPRPHNKPRP	-0.508
RRIRKRPPRLPRPRPRPKCFPRP	0.00084
RRIRWRPPRLPRPRPRPHYGPRP	-0.0711
RRIRLRPPRLPRPRPRPRGVPRP	0.494
RRIRVRPPRLPRPRPRPDDFPRP	0.0492
RRIRGRPPRLPRPRPRPEYFPRP	0.11
RRIRIRPPRLPRPRPRPFPRPRP	-0.123
RRIRARPPRLPRPRPRPMQQPRP	0.281
RRIRDRPPRLPRPRPRPIGPPRP	0.0272
RRIRHRPPRLPRPRPRPSWTPRP	-0.356
